Biological target: recombinant PRL-3 (Homo sapiens, UniProt O75365)
Construct: 6xHis (N, cleaved yes); made in house; host or cells: E. coli One Shot BL21 Star
Sequence (O75365 whole entry): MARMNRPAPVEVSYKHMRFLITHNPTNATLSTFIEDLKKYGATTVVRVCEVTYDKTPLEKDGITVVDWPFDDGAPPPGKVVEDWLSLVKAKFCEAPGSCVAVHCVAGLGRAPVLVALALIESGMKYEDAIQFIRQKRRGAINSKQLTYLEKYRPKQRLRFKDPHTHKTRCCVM
Test: In vitro phosphatase assay (DiFMUP hydrolysis), PRL-3; further: test concentration or dose not given here
Assay type: biochemical
Conditions: FDA-approved drug screen; compared to DMSO
Counter-ions that a name gives are not always drawn.
EXPERIMENTAL READOUT: % Phosphatase Activity (compared to DMSO) PRL-3 (%)

MOLECULE: NC(=O)c1ncn([C@@H]2O[C@H](CO)[C@@H](O)[C@H]2O)c1N [Acadesine]
READOUT UNIT: %
DATA VALUE: 95

MOLECULE: CC(C)(C)Cn1c(N)nc2ccc(-c3[nH]c(C(C)(C)C)nc3-c3ccc(F)cc3)nc21 [LY2228820]
READOUT UNIT: %
DATA VALUE: 131

MOLECULE: COc1cc2c(cc1Cc1cccc(Cl)c1F)c(=O)c(C(=O)O)cn2[C@H](CO)C(C)C [Elvitegravir (GS-9137, JTK-303)]
READOUT UNIT: %
DATA VALUE: 81

MOLECULE: CC1(C)O[C@@H]2C[C@H]3[C@@H]4CCC5=CC(=O)C=C[C@]5(C)[C@H]4[C@@H](O)C[C@]3(C)[C@]2(C(=O)CO)O1 [Desonide]
READOUT UNIT: %
DATA VALUE: 84

MOLECULE: O=C(Nc1c(Cl)cncc1Cl)c1ccc(OC(F)F)c(OCC2CC2)c1 [Roflumilast]
READOUT UNIT: %
DATA VALUE: 87

MOLECULE: CO/N=C(\C(=O)N[C@@H]1C(=O)N2C(C(=O)OCOC(=O)C(C)(C)C)=C(/C=C\c3scnc3C)CS[C@H]12)c1csc(N)n1 [Cefditoren Pivoxil]
READOUT UNIT: %
DATA VALUE: 113

MOLECULE: CN(C)CCCOc1nn(Cc2ccccc2)c2ccccc12 [Benzydamine HCl]
READOUT UNIT: %
DATA VALUE: 77

MOLECULE: O=c1oc2c(O)c(O)cc3c(=O)oc4c(O)c(O)cc1c4c23 [Ellagic acid]
READOUT UNIT: %
DATA VALUE: 68

---

// values below are reported % Phosphatase Activity (compared to DMSO) PRL-1
Molecular target: recombinant PRL-1 (Homo sapiens)
Construct: 6xHis (N, cleaved yes); made in house; host or cells: E. coli One Shot BL21 Star
Test: In vitro phosphatase assay (DiFMUP hydrolysis), PRL-1; further: test concentration or dose not given here
Type: biochemical
Settings: FDA-approved drug screen; activity compared to DMSO
Where a name gives a salt, the structure may show the parent alone.
EXPERIMENTAL READOUT: % Phosphatase Activity (compared to DMSO) PRL-1 (%)

COMPOUND: CC1(C)CCC(C)(C)c2cc(NC(=O)c3ccc(C(=O)O)cc3)ccc21 [Tamibarotene]
DATA VALUE: 93

COMPOUND: CN[C@@H]1[C@@H](O)[C@@H](O[C@@H]2[C@@H](O)[C@H](O[C@H]3OC(CN)=CC[C@H]3N)[C@@H](N)C[C@H]2N)OC[C@]1(C)O [Sisomicin sulfate]
DATA VALUE: 83

COMPOUND: Cc1ccc(O)c([C@H](CCN(C(C)C)C(C)C)c2ccccc2)c1 [Tolterodine tartrate]
DATA VALUE: 98

COMPOUND: CCCCNc1ccc(C(=O)OCCN(C)C)cc1 [Tetracaine HCl]
DATA VALUE: 99

---

Target: recombinant PRL-2 (Homo sapiens)
Construct: 6xHis (N, cleaved yes); made in house; host or cells: E. coli One Shot BL21 Star
Sequence (Q12974 whole entry): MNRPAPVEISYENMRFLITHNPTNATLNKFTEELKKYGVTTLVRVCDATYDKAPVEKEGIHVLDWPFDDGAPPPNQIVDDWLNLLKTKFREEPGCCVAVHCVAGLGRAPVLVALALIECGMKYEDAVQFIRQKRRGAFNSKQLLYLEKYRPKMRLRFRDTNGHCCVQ
Assay: In vitro phosphatase assay (DiFMUP hydrolysis), PRL-2
Assay type: biochemical
Conditions: FDA-approved drug screen; compared to DMSO
EXPERIMENTAL READOUT: % Phosphatase Activity (compared to DMSO) PRL-2 (%)

COMPOUND: Cc1nc2n(c(=O)c1CCN1CCC(c3noc4cc(F)ccc34)CC1)CCCC2O (stereo not shown) [Paliperidone]
DATA VALUE: 103
--
COMPOUND: CC(NC(C)(C)C)C(=O)c1cccc(Cl)c1.Cl (stereo not shown) [Amfebutamone HCl]
DATA VALUE: 110
--
COMPOUND: CN(C)C(=O)c1cc2cnc(Nc3ccc(N4CCNCC4)cn3)nc2n1C1CCCC1 [LEE011]
DATA VALUE: 84
--
COMPOUND: C#C[C@]1(O)CC[C@H]2[C@@H]3CCC4=CC(=O)CC[C@@H]4[C@H]3CC[C@@]21CC [Levonorgestrel]
DATA VALUE: 101

---

Target: recombinant PRL-1 (Homo sapiens, UniProt Q93096)
Construct: 6xHis (N, cleaved yes); made in house; host or cells: E. coli One Shot BL21 Star
Sequence (Q93096 whole entry): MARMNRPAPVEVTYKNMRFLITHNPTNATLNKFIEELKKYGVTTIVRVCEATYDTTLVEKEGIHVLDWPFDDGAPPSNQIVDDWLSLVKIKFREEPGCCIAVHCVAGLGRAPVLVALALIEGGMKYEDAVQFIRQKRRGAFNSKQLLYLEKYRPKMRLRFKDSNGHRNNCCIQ
Assay: In vitro phosphatase assay (DiFMUP hydrolysis), PRL-1; further: test concentration or dose not given here
Assay type: biochemical
Settings: FDA-approved drug screen; activity compared to DMSO
Counter-ions that a name gives are not always drawn.
// values below are reported % Phosphatase Activity (compared to DMSO) PRL-1
EXPERIMENTAL READOUT: % Phosphatase Activity (compared to DMSO) PRL-1

COMPOUND: O=C(O)CCC(=O)Nc1ccc(S(=O)(=O)Nc2nccs2)cc1 [Succinylsulfathiazole]
DATA VALUE: 85%
//
COMPOUND: CN(C)[C@@H]1C(O)=C(C(N)=O)C(=O)[C@@]2(O)C(O)=C3C(=O)c4c(O)cccc4[C@@](C)(O)[C@H]3C[C@@H]12 [Tetracycline HCl]
DATA VALUE: 99%
//
COMPOUND: Nc1ncnc2c1ncn2[C@@H]1O[C@H](CO)[C@@H](O)[C@@H]1O [Vidarabine]
DATA VALUE: 106%
//
COMPOUND: CC[C@]1(O)C[C@@H]2CN(CCc3c([nH]c4ccccc34)[C@@](C(=O)OC)(c3cc4c(cc3OC)N(C)[C@H]3[C@@](O)(C(=O)OC)[C@H](OC(C)=O)[C@]5(CC)C=CCN6CC[C@]43[C@@H]65)C2)C1 [Vinblastine sulfate]
DATA VALUE: 92%

---

Biological target: recombinant PRL-2 (Homo sapiens)
Construct: 6xHis (N, cleaved yes); made in house; host or cells: E. coli One Shot BL21 Star
Assay: In vitro phosphatase assay (DiFMUP hydrolysis), PRL-2;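 further: PRL-2 activity read as DiFMUP hydrolysis after 20 min at room temperature with drug, enzyme first pre-reduced at 4 °C for 20 min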
Type: biochemical
Settings: FDA-approved drug screen; compared to DMSO
Structures can show the parent of a compound that is named as a salt.
// values below are reported % Phosphatase Activity (compared to DMSO) PRL-2
EXPERIMENTAL READOUT: % Phosphatase Activity (compared to DMSO) PRL-2 (%)

COMPOUND: CCc1ccc(CCOc2ccc(CC3SC(=O)NC3=O)cc2)nc1 (centres unmarked) [Pioglitazone HCl]
DATA VALUE: 100

COMPOUND: CC(C)(Oc1ccc(CCNC(=O)c2ccc(Cl)cc2)cc1)C(=O)O [Bezafibrate]
DATA VALUE: 119

COMPOUND: Cc1[nH]c(=O)c(C#N)cc1-c1ccncc1
DATA VALUE: 110

COMPOUND: Cc1ncc([N+](=O)[O-])n1CC(O)CCl (centres unmarked)
DATA VALUE: 102

COMPOUND: C[C@H]1CNCCCN1S(=O)(=O)c1cccc2cncc(F)c12
DATA VALUE: 94

---

// values below are reported % Phosphatase Activity (compared to DMSO) PRL-3
Biological target: recombinant PRL-3 (Homo sapiens, UniProt O75365)
Construct: 6xHis (N, cleaved yes); made in house; host or cells: E. coli One Shot BL21 Star
Assay: In vitro phosphatase assay (DiFMUP hydrolysis), PRL-3; further: test concentration or dose not given here
Type: biochemical
Settings: FDA-approved drug screen; compared to DMSO
EXPERIMENTAL READOUT: % Phosphatase Activity (compared to DMSO) PRL-3 (%)

COMPOUND: O=C(O)c1cc(=O)c2ccccc2o1 [Chromocarb]
READOUT UNIT: %
DATA VALUE: 85
//
COMPOUND: C=CC1=C(C(=O)O)N2C(=O)[C@@H](NC(=O)/C(=N\OCC(=O)O)c3csc(N)n3)[C@H]2SC1 [Cefixime]
READOUT UNIT: %
DATA VALUE: 90
//
COMPOUND: Cc1cccc(Nc2ccccc2C(=O)O)c1C [Mefenamic Acid]
READOUT UNIT: %
DATA VALUE: 82
//
COMPOUND: CCn1c(=O)c(-c2cc[nH]n2)cc2c(C)nc(N)nc21 [SAR245409 (XL765)]
READOUT UNIT: %
DATA VALUE: 74
//
COMPOUND: OC(CNCC(O)C1CCc2cc(F)ccc2O1)C1CCc2cc(F)ccc2O1 (stereo not drawn) [Nebivolol]
READOUT UNIT: %
DATA VALUE: 87
//
COMPOUND: COC1=CC(=O)C[C@@H](C)[C@]12Oc1c(Cl)c(OC)cc(OC)c1C2=O [Griseofulvin]
READOUT UNIT: %
DATA VALUE: 90
//
COMPOUND: CC(=O)Oc1cccc2c1C(=O)c1c(OC(C)=O)cc(C(=O)O)cc1C2=O [Diacerein]
READOUT UNIT: %
DATA VALUE: 31
//
COMPOUND: CN(CCOc1ccc(NS(C)(=O)=O)cc1)CCc1ccc(NS(C)(=O)=O)cc1 [Dofetilide]
READOUT UNIT: %
DATA VALUE: 82
//
COMPOUND: NC(=O)c1ccc(I)c([N+](=O)[O-])c1 [Iniparib (BSI-201)]
READOUT UNIT: %
DATA VALUE: 78
